# experimental.system: UniProtKB O14791
# experimental.details: Multi-Tox Assay (MultiTox-Fluor Multiplex Cytotoxicity Assay in tet-inducible APOL1 T-REx-HEK293 cells; Table 46 does not say which APOL1 variant G0/G1/G2)
# Format: cell-based
# measurement.parameters: APOL1 variant not given
metric: Multi-Tox Assay Max Activity (%)
All answers are understood in %, so give the number only.

Record excerpt, results attached:
                                   compound  result_number
0  Cc1nocc1[C@@H]1C[C@]2(C[C@H](C)N1)OCCc1cc(Cl)sc12 (racemic) [Compound 132]           99.3
1  C[C@H]1C[C@@]2(C[C@@H](c3cn(CC4CCS(=O)(=O)C4)nn3)N1)OCC(F)(F)c1cc(Cl)sc12 (stereo partly shown) [Compound 307]           99.0
2  CC1CC2(CC(C3CC3)N1)OCCc1cc(Cl)sc12 (mixture of isomers) [Compound 211]           99.6
3  C[C@H]1C[C@@]2(C[C@@H](c3cn(Cc4ccc(OC5CCOCC5)cc4)nn3)N1)OC[C@@H](O)c1cc(Cl)sc12 [Compound 266]          100.0
4  Cc1nnc(Cn2cc([C@@H]3C[C@]4(C[C@H](C)N3)OCC(F)(F)c3cc(Cl)sc34)nn2)[nH]1 [Compound 339]           97.0
5  Cc1ccccc1C(O)Cn1cc([C@@H]2C[C@]3(C[C@H](C)N2)OC[C@@H](O)c2cc(Cl)sc23)nn1 (stereo partly shown) [Compound 261]          100.0

IN: Quick one: Multi-Tox Assay Max Activity (%) for C[C@H]1C[C@@]2(C[C@@H](c3cn(CCC(C)(C)O)nn3)N1)OC[C@@H](O)c1cc(Cl)sc12 [Compound 252] ?
OUT: 100.0

###

Entries annotated with measured Multi-Tox Assay Max Activity (%)
# experimental.system: APOL1 (Homo sapiens, UniProt O14791)
# Sequence (O14791 1-398 S342G/I384M): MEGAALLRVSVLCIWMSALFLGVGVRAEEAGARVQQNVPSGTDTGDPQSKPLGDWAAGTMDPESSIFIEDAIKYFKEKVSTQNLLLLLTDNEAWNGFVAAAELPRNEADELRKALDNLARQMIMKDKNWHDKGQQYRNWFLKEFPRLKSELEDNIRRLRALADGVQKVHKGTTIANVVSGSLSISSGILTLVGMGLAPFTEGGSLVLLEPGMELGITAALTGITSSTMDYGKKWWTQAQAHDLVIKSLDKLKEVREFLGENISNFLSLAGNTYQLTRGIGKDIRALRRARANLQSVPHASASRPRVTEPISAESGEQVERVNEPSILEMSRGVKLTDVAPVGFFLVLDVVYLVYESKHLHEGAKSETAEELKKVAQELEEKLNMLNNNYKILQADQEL
# experimental.details: Multi-Tox Assay (MultiTox-Fluor Multiplex Cytotoxicity Assay in tet-inducible APOL1 T-REx-HEK293 cells; Table 46 does not say which APOL1 variant G0/G1/G2)
# Format: cell-based
# measurement.parameters: APOL1 variant not given
All answers are understood in %, so give the number only.

                                   molecule                   experimental_system                            metric  result_number
0  C[C@H]1C[C@@]2(C[C@@H](c3cc(C4CC4)n[nH]3)N1)OCCc1cc(Cl)sc12 (racemic) [Compound 120]  APOL1 (Homo sapiens, UniProt O14791)  Multi-Tox Assay Max Activity (%)           99.0
1  COCC1(Cn2cc([C@@H]3C[C@]4(C[C@H](C)N3)OC[C@@H](O)c3cc(Cl)sc34)nn2)CC1 [Compound 270]  APOL1 (Homo sapiens, UniProt O14791)  Multi-Tox Assay Max Activity (%)           93.0

// next entry
IN: Quick one: Multi-Tox Assay Max Activity (%) for C[C@H]1C[C@@]2(C[C@@H](c3cn(CCC(N)=O)nn3)N1)OCC(F)(F)c1cc(Cl)sc12 [Compound 328] ?
OUT: 100.0

###

# experimental.system: APOL1 G1 (Homo sapiens, UniProt O14791, I384M/S342G)
# experimental.details: Trypanosoma brucei brucei Lysis Assay Using APOL1 Recombinant Protein (AlamarBlue viability readout)
# Type: cell-based
# measurement.parameters: Trypanosome Assay; read-out: Trypanosome Assay Max Activity (%)
metric: Emax (%)
All answers are understood in %, so give the number only.

Record excerpt, results attached:
In [3]: df
Out[3]:
                                   compound  metric  result_number
0  C[C@H]1C[C@@]2(C[C@@H](c3cn(C)nn3)N1)OC[C@H](O)c1cc(C(F)(F)F)sc12    Emax            102
1  Cc1nocc1[C@@H]1C[C@]2(C[C@H](C)N1)OCCc1cc(Cl)sc12 (racemic)    Emax           91.5
2  C[C@H]1C[C@@]2(C[C@@H](c3cccnn3)N1)OCCc1cc(Cl)sc12 (racemic)    Emax            103
3  C[C@H]1C[C@@]2(C[C@@H](c3cc(C(F)(F)F)[nH]n3)N1)OCCc1cc(Cl)sc12 (stereo in doubt)    Emax           97.5
4  C[C@H]1C[C@@]2(C[C@@H](c3ccc(C(F)(F)F)nc3)N1)OCCc1cc(Cl)sc12 (racemic)    Emax            104
5  C[C@@H]1CC2(C[C@H](C)N1)OCCc1cc(C(F)(F)F)sc12 (single isomer, unassigned)    Emax            108
6  C[C@H]1C[C@@]2(C[C@@H](c3ccnc(O)c3)N1)OCCc1cc(Cl)sc12 (racemic)    Emax            112
7  CC(=O)Nc1cccc([C@@H]2C[C@]3(C[C@H](C)N2)OCCc2cc(Cl)sc23)c1 (racemic)    Emax             97

// next entry
IN: Quick one: Emax for C[C@H]1C[C@@]2(C[C@@H](c3cn(C)nn3)N1)OC[C@@H](O)c1sc(Cl)cc12 ?
OUT: 113

###

# experimental.system: APOL1 G1 (Homo sapiens, UniProt O14791, I384M/S342G)
# experimental.details: Trypanosoma brucei brucei Lysis Assay Using APOL1 Recombinant Protein (AlamarBlue viability readout)
# Type: cell-based
# measurement.parameters: Trypanosome Assay; read-out: Trypanosome Assay Max Activity (%)
Entries annotated with measured Emax

                                   molecule  result
0  CC(=O)Nc1ccc([C@@H]2C[C@]3(C[C@H](C)N2)OCCc2cc(Cl)sc23)cc1 (racemic)    103%
1  CC(C)C1CC2(CC(c3cn(C)nn3)N1)OCCc1cc(Cl)sc12 (centres unmarked)    108%
2  Clc1cc2c(s1)C1(C[C@@H](C3CC3)N[C@@H](C3CC3)C1)OCC2 (single isomer, unassigned)    104%
3  Cc1nc2c([C@@H]3C[C@]4(C[C@H](C)N3)OCCc3cc(Cl)sc34)cccc2o1 (racemic)   71.5%
4  C[C@H]1C[C@@]2(C[C@@H](c3cnc4n3CCOC4)N1)OCCc1cc(Cl)sc12 (racemic)     95%
5  COc1ccc([C@@H]2C[C@]3(C[C@H](C)N2)OCCc2cc(Cl)sc23)cc1O (racemic)    102%
6  CC(C)C1CC2(CC(c3cn(C)nn3)N1)OCCc1cc(C(F)(F)F)sc12 (centres unmarked)    108%

// next entry
IN: Quick one: Emax for C[C@H]1CC2(C[C@H](C)N1)OCCc1sc(C(F)(F)F)cc12 (some centres unmarked) ?
OUT: 50.7%

###

# experimental.system: APOL1 (Homo sapiens, UniProt O14791)
# experimental.details: Multi-Tox Assay (MultiTox-Fluor Multiplex Cytotoxicity Assay in tet-inducible APOL1 T-REx-HEK293 cells; Table 46 does not say which APOL1 variant G0/G1/G2)
# measurement.parameters: IP50 = IC50 for cell proliferation, APOL1 variant not given
metric: IC50

Record excerpt, results attached:
                                   molecule   result
0  COc1ccc([C@@H]2C[C@]3(C[C@H](C)N2)OCCc2cc(Cl)sc23)c(F)c1 (racemic)  < 50 nM
1  Cc1cc2c(s1)C1(C[C@@H](c3cn(C)nn3)N[C@@H](C)C1)OCC2 (stereo in doubt)  < 50 nM

IN: Recall the recorded IC50 for C[C@H]1C[C@@]2(C[C@@H](c3cnc(-c4ccccc4)o3)N1)OCCc1cc(Cl)sc12 (racemic) with APOL1 (Homo sapiens, UniProt O14791) and state it.
OUT: < 50 nM

IN: Recall the recorded IC50 for C[C@H]1C[C@@]2(C[C@@H](c3cn(CCS(=O)(=O)Nc4ccccc4)nn3)N1)OC[C@@H](O)c1cc(Cl)sc12 with APOL1 (Homo sapiens, UniProt O14791) and state it.
OUT: < 50 nM

IN: Recall the recorded IC50 for C[C@H]1C[C@@]2(C[C@@H](c3cn(Cc4ccc(OC5CCOCC5)cc4)nn3)N1)OC[C@@H](O)c1cc(Cl)sc12 with APOL1 (Homo sapiens, UniProt O14791) and state it.
OUT: < 50 nM

IN: Recall the recorded IC50 for COc1nccc([C@@H]2C[C@]3(C[C@H](C)N2)OCCc2cc(Cl)sc23)n1 (racemic) with APOL1 (Homo sapiens, UniProt O14791) and state it.
OUT: < 50 nM

IN: Recall the recorded IC50 for C[C@H]1C[C@@]2(C[C@@H](c3cn(Cc4n[nH]c5ccccc45)nn3)N1)OCC(F)(F)c1cc(Cl)sc12 with APOL1 (Homo sapiens, UniProt O14791) and state it.
OUT: 50 to 500 nM

IN: Recall the recorded IC50 for Cn1cc(C2CC3(CC(C4CCC4)N2)OCCc2cc(C(F)(F)F)sc23)nn1 (stereo not shown) with APOL1 (Homo sapiens, UniProt O14791) and state it.
OUT: 50 to 500 nM

IN: Recall the recorded IC50 for C[C@H]1C[C@@]2(C[C@@H](c3c[nH]nn3)N1)OCCc1cc(Cl)sc12 (racemic) with APOL1 (Homo sapiens, UniProt O14791) and state it.
OUT: < 50 nM

IN: Recall the recorded IC50 for C[C@H]1C[C@@]2(C[C@@H](c3cc4n(n3)CCCO4)N1)OCCc1cc(Cl)sc12 (racemic) with APOL1 (Homo sapiens, UniProt O14791) and state it.
OUT: 50 to 500 nM

IN: Recall the recorded IC50 for C[C@H]1C[C@@]2(C[C@@H](c3cn(Cc4ccc(C#N)nc4)nn3)N1)OC[C@@H](O)c1cc(Cl)sc12 with APOL1 (Homo sapiens, UniProt O14791) and state it.
OUT: < 50 nM

IN: Recall the recorded IC50 for C[C@H]1C[C@@]2(C[C@@H](c3cn(Cc4ccc(O)cc4)nn3)N1)OCC(F)(F)c1cc(Cl)sc12 with APOL1 (Homo sapiens, UniProt O14791) and state it.
OUT: 50 to 500 nM
